Can you tell me pIC50 for the items I'm about to list?
Target: IRAK4 (Homo sapiens, UniProt Q9NWZ3)
Assay: biochemical
Answer as the number alone; pIC50 is minus log10 of concentration in mol/L.

Please give the measured pIC50 for this compound: `CC(C)Oc1cc2nc(C34COC(C3)C4)cn2cc1C(=O)Nc1cccc(C(F)F)n1` 9.70

# input compound: `COc1ncccc1NC(=O)c1cn2cc(C3CC3)nc2cc1OC1CCC1` ; wanted: its pIC50 8.49

Return reported pIC50; argument: CCOc1nc(C(=O)Nc2cc(F)cn(C)c2=O)cn2cc(C3CCCOC3)nc12 (stereo not shown) 8.01

# input compound: CC(C)Oc1nc2nc([C@]34CC[C@](C)(C3)OC4)cn2cc1C(=O)Nc1cnn2cc(F)cnc12 (single isomer, unassigned) ; wanted: its pIC50 9.40

Consider the compound CC(C)Oc1cc2nc([C@]34CC[C@](C)(C3)OC4)cn2cc1C(=O)Nc1ccn(C)n1 (single isomer, unassigned) and give its measured pIC50. 8.51

If you can, please state the reported pIC50 value of `COc1cc2nc(C3CCOCC3)cn2cc1C(=O)Nc1cccc2c1OCC2` . 8.05

Please give the measured pIC50 for this compound: `CC(C)Oc1c(C(=O)Nc2cnn3cccnc23)cn2cc(C34COC(C)(C3)C4)nc2c1F` 8.11

----------
Would you mind telling me the reported IC50 of each entry?
Target: IRAK4 (Homo sapiens)
Sequence (Q9NWZ3 1-460): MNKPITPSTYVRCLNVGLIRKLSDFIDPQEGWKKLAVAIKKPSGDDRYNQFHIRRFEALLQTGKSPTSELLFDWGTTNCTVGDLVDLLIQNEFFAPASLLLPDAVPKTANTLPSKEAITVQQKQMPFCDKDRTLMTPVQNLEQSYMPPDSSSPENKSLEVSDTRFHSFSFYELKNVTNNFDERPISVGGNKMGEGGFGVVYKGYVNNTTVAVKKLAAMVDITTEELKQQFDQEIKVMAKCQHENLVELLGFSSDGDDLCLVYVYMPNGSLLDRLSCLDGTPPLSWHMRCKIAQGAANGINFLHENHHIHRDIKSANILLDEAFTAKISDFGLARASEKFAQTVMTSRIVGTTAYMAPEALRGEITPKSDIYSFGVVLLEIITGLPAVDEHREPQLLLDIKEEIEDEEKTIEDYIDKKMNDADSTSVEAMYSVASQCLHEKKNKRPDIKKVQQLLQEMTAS
Experiment: biochemical
Return type: number; implicit unit nM.

What measured IC50 goes with CC12CCC(c3cn4cc(C(=O)Nc5cnc6cccnn56)c(OC5CCC5)cc4n3)(CO1)C2 (centres unmarked) [Example 649] ? 0.2

Looking for the measured IC50 of CC(C)Oc1cc2nc(C34CCC(C3)OC4)cn2cc1C(=O)Nc1cccc(C(F)F)n1 (centres unmarked) [Example 246] , can you help? 0.2

What measured IC50 goes with CC(C)Oc1c(C(=O)Nc2cccc(-c3cnn(C)c3)n2)cn2cc(C34COC(C)(C3)C4)nc2c1F [Example 393] ? 0.1

Entry CC(C)Oc1nc2nc(C34COC(C)(C3)C4)cn2cc1C(=O)Nc1cccc(C2CC2)n1 [Example 387] has what IC50? 0.9

Recorded IC50 of CC(C)Oc1cc2nc(C34COC(C)(C3)C4)cn2cc1C(=O)Nc1ccc(F)cn1 [Example 244] , please. 5.9

Fill in: IC50 of CC(C)Oc1cc2nc(C34CCC(C)(C3)OC4)cn2cc1C(=O)Nc1cnn2c1OCCC2 (centres unmarked) [Example 250] is ___ 1.3

Quick one: IC50 for Cn1nc(NC(=O)c2cn3cc(C45CCC(C)(C4)OC5)nc3cc2OC2CCC2)cc1F (centres unmarked) [Example 419] ? 3.3

# input compound: C[C@@H](Oc1cc2nc(C34COC(C)(C3)C4)cn2cc1C(=O)Nc1cccc(C(F)F)n1)C(F)(F)F (single isomer, unassigned) [Example 618] ; wanted: its IC50 0.6

Param item = CC(C)Oc1nc2nc(C34CC(C)(C3)OC4(C)C)cn2cc1C(=O)Nc1cnn2cc(F)cnc12 [Example 310] ; retrieve measured IC50. 1

Could you share which IC50 value was measured for CCOc1nc(C(=O)Nc2cc(F)cnc2OC)cn2cc([C@H]3CCCOC3)nc12 (single isomer, unassigned) [Example 595] ? 12.8

Quick one: IC50 of CCOc1cc2nc([C@H]3C[C@@H]3F)cn2cc1C(=O)Nc1cccc(OC)n1 (single isomer, unassigned) [Example 66] ? 25

So what does the record say about IC50 for COc1ncccc1NC(=O)c1cn2cc(C34COC(C)(C3)C4)nc2c(OC2CCC2)n1 [Example 347] ? 0.6

Recorded IC50 of CC(C)Oc1nc(C(=O)Nc2cccc(C(F)F)n2)cn2cc([C@@]34CC[C@@](C)(C3)OC4)nc12 (single isomer, unassigned) [Example 588] , please. 1.5

Fill in: IC50 of CC12CCC(c3cn4cc(C(=O)Nc5cnn6cccnc56)c(OC5CC5)cc4n3)(CO1)C2 (centres unmarked) [Example 554] is ___ 0.8

Item under review: COc1cccc(NC(=O)c2cn3cc(CC4CCOC4)nc3cc2OC)n1 (centres unmarked) [Example 24] . Reported IC50? 21

Item under review: CC1(C)CC(Oc2cc3nc(C45COC(C)(C4)C5)cn3cc2C(=O)Nc2cccn(C(F)F)c2=O)C1 [Example 445] . Reported IC50? 0.6

Recorded IC50 of CCOc1nc(C(=O)Nc2cccc(OC)n2)cn2cc(C34COC(C)(C3)C4)nc12 [Example 486] , please. 7.5

Entry under review: CC(C)Oc1cc2nc(C34CCC(C)(C3)OC4)cn2cc1C(=O)Nc1ccc(F)cn1 (centres unmarked) [Example 517] . Reported IC50? 4.3

Suppose we examine the compound CCOc1nc(C(=O)Nc2cccnc2OC)cn2cc([C@@]34CC[C@@](C)(C3)OC4)nc12 (single isomer, unassigned) [Example 605] ; what IC50 value has been reported? 0.4

Look at this compound and give its reported IC50. CC(C)Oc1cc2nc(C3COCCO3)cn2cc1C(=O)Nc1cccc(C(F)F)n1 (centres unmarked) [Example 330] 0.2

Query (compound): CC(C)Oc1cc2nc([C@@]34CC[C@@](C)(C3)OC4)cn2cc1C(=O)Nc1cccn(C(F)F)c1=O (single isomer, unassigned) [Example 624] ; field requested: IC50 0.2

# get_value(readout='IC50', item= CC(C)Oc1nc2nc(C34COC(C)(C3)C4)cn2cc1C(=O)Nc1ccn2nccc2n1 [Example 372] ) 57.6

Can you share its IC50? I mean this compound: CCOc1nc(C(=O)Nc2cccn(C)c2=O)cn2cc(C34COC(C)(C3)C4)nc12 [Example 500] 2.1

Recorded IC50 for Cn1cccc(NC(=O)c2cn3cc(C45COC(C)(C4)C5)nc3cc2OC2CCC2)c1=O [Example 424] , please? 0.7

Name the reported IC50 value associated with the compound COc1cc2nc(C34COC(C)(C3)C4)cn2cc1C(=O)Nc1cccc(C(F)F)n1 [Example 293] 2.8

Consider the compound shown here: CC(C)Oc1cc2nc(C34COC(C)(C3)C4)c(F)n2cc1C(=O)Nc1cccn(C(F)F)c1=O [Example 326] What is its recorded IC50? 1.9

Endpoint output: IC50 of CC(C)Oc1nc2nc([C@@]34CC[C@@](C)(C3)OC4)cn2cc1C(=O)Nc1cnn2cc(F)cnc12 (single isomer, unassigned) [Example 630] . Value? 0.3

Give its IC50 value. Item: CCOc1nc(C(=O)Nc2cccc(C(F)F)n2)cn2cc([C@@]34CC[C@@](C)(C3)OC4)nc12 (single isomer, unassigned) [Example 601] 1.9

Name the reported IC50 value associated with the compound CC(C)Oc1cc2nc(C34COC(C)(C3)C4)cn2cc1C(=O)Nc1cncc2cccnc12 [Example 320] 0.4

This collection of values is drawn from patent US20230087118A1.
